Assay: Cell Viability - LYMP2-017 (AID 972);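 note: cells exposed to compound for 24 hours at 37 °C; nearly all actives have a fitted effect of over 55% in size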
Conditions: LYMP2-017 lymphoblastoid cell viability; series mostly up to 92.2 µM
Inconclusive results are not listed. Activity calls are given as the source filed them. Calls come from the whole dose curve; as a rule, active = well fitted cell-killing curve with a large enough effect; inconclusive = small, poorly fitted or top-dose-only effect; inactive = flat fitted curve, though single readings scatter. Numbered stars: 1 amine (or outer) side, 2 acyl side, 3 side chain; on linkers, the order of the positions; unused ones are H or OH. Bridge positions count the residues as written; N and C are the ends. Square brackets hold non-standard residues; d marks the D form. Peptide text beside a SMILES is read from it. I, II: the chains in the order shown. Actinocin(9to1) = Cc1c2oc3c(C)ccc(C(=O)[*:1])c3nc-2c(C(=O)[*:2])c(N)c1=O; NMeV = CN[C@H](C(=O)O)C(C)C; Sar = CNCC(=O)O
Hi there, use one of these labels in your reply, thanks! class 1 (active), class 0 (inactive)

Observe how each entry below is paired with its result.
>  <MOLECULE>
O=C(O)CCCCC(=O)O

>  <ASSIGNED CLASS>
class 0

$$$$
>  <MOLECULE>
Cc1c2oc3c(C)ccc(C(=O)N[C@@H]4C(=O)N[C@H](C(C)C)C(=O)N5CCC[C@H]5C(=O)N(C)CC(=O)N(C)[C@@H](C(C)C)C(=O)O[C@@H]4C)c3nc-2c(C(=O)N[C@@H]2C(=O)N[C@H](C(C)C)C(=O)N3CCC[C@H]3C(=O)N(C)CC(=O)N(C)[C@@H](C(C)C)C(=O)O[C@@H]2C)c(N)c1=O (I: T[dV]P[Sar][NMeV] / II: T[dV]P[Sar][NMeV]; ester I:1-I:C, II:1-II:C; linker I:N-II:N via Actinocin(9to1))

>  <ASSIGNED CLASS>
class 1

$$$$
>  <MOLECULE>
Nc1ccc(C(=O)O)cc1

>  <ASSIGNED CLASS>
class 0

$$$$
>  <MOLECULE>
C=C(CC)C(=O)c1ccc(OCC(=O)O)c(Cl)c1Cl

>  <ASSIGNED CLASS>
class 1

$$$$
>  <MOLECULE>
O=c1ccc2ccccc2o1

>  <ASSIGNED CLASS>
class 0

$$$$

Now examine the next entry.
Recorded test call requested for CC/C(=C(/CC)c1ccc(O)cc1)c1ccc(O)cc1 class 0

// provenance: PubChem BioAssay (NCATS)
